# System Name: T1, human LILRB2 expressed on cells (human, UniProt Q8N423 22-597)
# T1 construct: In 293T cells it was expressed from pCMV3-LILRB2-GFP; also called CHO-LILRB2; Jurkat-LILRB2
# T1 sequence (Q8N423 other isoform, or with tags, fused parts or gaps limits assumed): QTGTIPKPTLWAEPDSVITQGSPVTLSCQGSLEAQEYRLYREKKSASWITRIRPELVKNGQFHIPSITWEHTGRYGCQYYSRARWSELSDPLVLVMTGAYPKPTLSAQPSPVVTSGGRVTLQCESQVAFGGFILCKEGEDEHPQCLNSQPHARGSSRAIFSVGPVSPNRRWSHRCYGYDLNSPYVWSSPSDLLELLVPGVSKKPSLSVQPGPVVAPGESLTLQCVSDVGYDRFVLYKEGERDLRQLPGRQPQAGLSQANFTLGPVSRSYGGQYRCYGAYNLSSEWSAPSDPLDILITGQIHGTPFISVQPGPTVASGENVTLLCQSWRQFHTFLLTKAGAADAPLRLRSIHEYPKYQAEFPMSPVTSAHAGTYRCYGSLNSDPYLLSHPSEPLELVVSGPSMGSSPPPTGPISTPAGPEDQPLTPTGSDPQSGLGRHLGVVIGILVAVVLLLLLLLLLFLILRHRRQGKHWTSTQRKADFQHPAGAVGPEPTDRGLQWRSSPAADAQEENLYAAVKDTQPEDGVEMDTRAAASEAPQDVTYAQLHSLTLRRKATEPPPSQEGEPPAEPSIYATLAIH
# Experimental Details: flow cytometry, Jurkat-LILRB2 cells; blocked ligand: APC HLA-G monomer tetramer
Readout Kind: IC50
In your response, the unit should come after the numeric value.

-- ask Return reported IC50. Input binder: D2M002-101 (antibody, V domains shown, humanized and optimized variant tested beside D2M002-002; also called P211_A12) VH: QVQLVQSGAEVKKPGASVKVSCKASGYTFTRYVMHWVRQAPGQRLEWMGWINPNNEETKYSQKFKGRVTLTRDTSASTAYMELSSLRSEDTAVYYCARADLEILPYYDHARNAMDYWGQGTLVTVSS VL: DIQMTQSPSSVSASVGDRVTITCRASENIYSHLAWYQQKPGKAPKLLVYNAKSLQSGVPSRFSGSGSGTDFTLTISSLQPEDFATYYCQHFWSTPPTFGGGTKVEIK
-- reply 0.025 µg/mL
